Hi there, I'd appreciate the recorded IFNγ released (pg/ml), Sample 1 for every entry that follows.
- TARGET_OF_ASSAY: T1, full length human KLRG1 (human, UniProt Q96E93 1-195)
- T1 sequence (looked up): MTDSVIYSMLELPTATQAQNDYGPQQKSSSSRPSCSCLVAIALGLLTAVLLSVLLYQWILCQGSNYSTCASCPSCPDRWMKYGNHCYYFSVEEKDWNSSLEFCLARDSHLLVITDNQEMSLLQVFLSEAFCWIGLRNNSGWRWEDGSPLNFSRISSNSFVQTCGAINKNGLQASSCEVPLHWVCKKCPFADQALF
- METHOD_NOTES: cell-based or functional assay
Provide only the numeric value, understood in pg/mL.

Prompt: Name the recorded IFNγ released (pg/ml), Sample 1 of the binder listed here: ABC_G1N05 (antibody, V domains shown, Mouse hybridoma monoclonal antibody) VH: EVLLMESGGDLVKPGGSLKLSCAASGFTFSSYDMSWVRQTPDKRLEWVATISSSGRYTFYPDNVKGRFTISRDNAKNTLYLQVSNLKSEDTAMYYCSRTGVTTVVFTDYFDYWGQGTTLTVSS VL: DIQMTQSPSSLSASLGERVSLTCRASQDIGNSLNWLQQGPDGTIKRLIYATSSLDSGVPKRFSGSRSGSTYSLTISSLESEDFVAYYCLQYLSSPPTFGGGTKLEIK
Response: 1010

Prompt: Name the recorded IFNγ released (pg/ml), Sample 1 of the binder listed here: ABC_G1N01 (antibody, V domains shown, Mouse hybridoma monoclonal antibody) VH: QVILKESGPGILQPSQTLSLTCSFSGFSLTTFGMGIGWIRHPSGKALEWLAHIWWNDDKSYNSALKSRLTISKDTSKNQVFLRLANVATADTATYYCARTIYYGNYLTFYAMEHWGQGTSVTVSS VL: DVLLTQTPLSLPVSLGDQASISCRSSQNIVHSNGNTYLEWYLLKPGQSPKLLIFKVSNRFSGVPDKFSGSGSGTDFTLKIRRVEAEDLGIYYCFQGSHVPPTFGAGTKLELK
Response: 1190

Prompt: Name the recorded IFNγ released (pg/ml), Sample 1 of the binder listed here: ABC_G1N06 (antibody, V domains shown, Mouse hybridoma monoclonal antibody) VH: QVQLKQSGPGLVQPSQSLSITCTVSGFSLTTHAVHWVRQSPGKGLDWLGVIWSGGNTDYNAAFISRLTISKDNSKSQVFFKMNSLQADDTAIYYCVRLLLPAMDYWGQGTSVTVSS VL: QIVLTQSPAIMSASLGERVTMTCTATSSVSSTYLHWYRQKPGSSPKLWIYSTSTLASGVPVRFRGSGSGTSYSLTISSMEAEDAATYYCHQYRRSPYTFGGGTKLEIK
Response: 1020

Prompt: Name the recorded IFNγ released (pg/ml), Sample 1 of the binder listed here: ABC_G1N02 (antibody, V domains shown, Mouse hybridoma monoclonal antibody) VH: QVTLKESGPGILQPSQTLSLTCSVSGFSLSTFGMGVGWIRQPSGKGLEWLAHIWWDDDKWYELALKSRLTISKDSSKNQVFLKIANVDTADTATYFCARVIYYGSRSAYYSMDYWGPGTSVTVSS VL: DVLMTQTPLSLPVSLGAQASISCKSSQSIVHSNGHTYLEWYLQKPGQSPKILIYKVSNRFSGVPDRFSGSGSGTDFTLKISRVEAEDLGVYYCFQGSHVPVTFGAGTKLELK
Response: 1440

Data provenance: patent US20210347899A1
